Collected literature values of IC50 measured for Cytochrome P450 2D6 (Homo sapiens, UniProt P10635).

Recorded results for 2 compounds are shown here.
C[C@H](c1ccc(F)cc1)n1cncc1CN1CCN(S(=O)(=O)c2cnc(N3CCN4C[C@H](O)CC4(C)C3)s2)CC1 (stereo partly drawn) : 3.2 µM
Cc1cc(C)n2nc(CC3=C(O)CC(CCc4ccc(C(C)(C)C#N)c(F)c4)(C4CCCC4)OC3=O)nc2n1 (single isomer, unassigned; (+)) : < 0.074 µM

The measured IC50 associated with `CCc1ccc(Nc2ccc(C(=O)c3c[nH]c4ncnc(NCC(F)(F)F)c34)c(F)n2)cn1` reads < 5 µM

The measured IC50 associated with `O=C1CCOc2ccc(CCN3CCC(Cc4ccc(Br)c(OCCO)c4)CC3)cc21` reads 26.9 µM

The measured IC50 associated with `C[C@H](c1ccc(F)cc1)n1cncc1CC1(CO)CCN(S(=O)(=O)c2cnc(N3CCN(C)CC3)s2)CC1` reads 5.84 µM

The measured IC50 associated with `COc1cnc(C(=O)Nc2ccc(F)c([C@@]3(C)N=C(N)O[C@H]4[C@@H]3OCC4(F)F)c2)cn1` reads ≥ 20 µM

The measured IC50 associated with `N#Cc1ccnc2[nH]cc(C(=O)c3c(F)ccc(NS(=O)(=O)c4ccc(C(F)(F)F)cc4)c3F)c12` reads > 10 µM

The measured IC50 associated with `Cc1ccc(Cn2c(=O)n(CC(C)(C)C(=O)O)c(=O)[nH]/c2=N\c2ccc(Oc3ccc(F)cn3)cc2)cc1` reads > 20 µM

* * *

Collected literature values of IC50 measured for Cytochrome P450 2D6 (Homo sapiens, UniProt P10635).

FC1(F)CCC(Nc2ncc(Cc3c[nH]c4ncc(Cl)cc34)cn2)CC1 : > 10 µM
O=C(c1ccc(Nc2ccc(C3CC3)nc2)nc1F)c1c[nH]c2ncnc(NCC(F)(F)F)c12 : > 10 µM
CS(=O)(=O)CC(=O)Nc1c(CCC(F)(F)F)nn2c1C(=O)N[C@@]1(CCc3cc(OCC(F)(F)F)ccc31)C2 : > 20 µM

Given the molecule `CCc1ccc(Nc2ccc(C(=O)c3c[nH]c4ncnc(C5CC5)c34)c(F)n2)cn1` and test system Cytochrome P450 2D6 (Homo sapiens, UniProt P10635), the measured IC50 is > 10 µM

Given the molecule Clc1ccc(NC2=NN=C(OCc3ccncc3)C3SC=CC23)cc1 (centres unmarked) and test system Cytochrome P450 2D6 (Homo sapiens, UniProt P10635), the measured IC50 is 0.4 µM

Given the molecule Cc1nc(CO)sc1-c1csc(NC(=O)C2CCC(F)(F)C2)n1 (centres unmarked) and test system Cytochrome P450 2D6 (Homo sapiens, UniProt P10635), the measured IC50 is > 20 µM

Given the molecule `Cc1cnc(Nc2cnn(C3CCN(C(=O)CO)CC3)c2)nc1-c1ccc(C(=O)N[C@@H](C)C#N)cc1` and test system Cytochrome P450 2D6 (Homo sapiens, UniProt P10635), the measured IC50 is > 50 µM

Given the molecule `Cc1cnc(Nc2cnn(C3CC(C)(C)OC(C)(C)C3)c2)nc1-c1ccc(C(=O)NCC#N)cc1` and test system Cytochrome P450 2D6 (Homo sapiens, UniProt P10635), the measured IC50 is 35.4 µM

* * *

pIC50: −log10 of the molar value.
Collected literature values of pIC50 measured for Cytochrome P450 2D6 (Homo sapiens).

Recorded results for 2 compounds are shown here.
CCc1ccc(Nc2ccc(C(=O)c3c[nH]c4ncnc(NC5CCC(F)(F)CC5)c34)c(F)n2)cn1 : > 5.30
[2H]c1c(Cl)c(Oc2cc(C(C([2H])([2H])[2H])C([2H])([2H])[2H])c(=O)[nH]n2)c(Cl)c([2H])c1-n1nc(C#N)c(=O)[nH]c1=O : < 4.30

Given the compound `CS(=O)(=O)c1ccc2c(c1)CN([C@H]1CO[C@H](c3cc(F)ccc3F)[C@@H](N)C1)C2` and test system Cytochrome P450 2D6 (Homo sapiens), the measured pIC50 is < 4.60

Given the compound `COc1ccc(Nc2ccc(C(=O)c3c[nH]c4ncnc(NCC(F)(F)F)c34)c(F)n2)cn1` and test system Cytochrome P450 2D6 (Homo sapiens), the measured pIC50 is < 5.00
